Molecular target: PTP1B (human recombinant) (Homo sapiens, UniProt P18031)
Experiment: Kinetic study against PTP1B (Dixon plots)
Conditions: Dixon plot; pNPP 0.5, 1.0, 2.0 mM
Measurement kind: Ki (µM)

(A) CC(C)=CCC/C(=C/CC/C(C)=C/CCC1(C)C=Cc2cc(O)cc(C)c2O1)C(=O)O (stereo not drawn)
(B) CC(C)=CCC/C(=C/CC/C(C)=C/CC/C(C)=C/Cc1cc(O)cc(C)c1O)C(=O)O [Sargahydroquinoic acid, sargahydroquinoic acid]
Input line: Out of A and B , name the one with the higher Ki. Answer by quoting the chosen item's label.
Output line: A

----------
Biological target: PTP1B (human recombinant) (Homo sapiens)
Sequence (P18031 1-435): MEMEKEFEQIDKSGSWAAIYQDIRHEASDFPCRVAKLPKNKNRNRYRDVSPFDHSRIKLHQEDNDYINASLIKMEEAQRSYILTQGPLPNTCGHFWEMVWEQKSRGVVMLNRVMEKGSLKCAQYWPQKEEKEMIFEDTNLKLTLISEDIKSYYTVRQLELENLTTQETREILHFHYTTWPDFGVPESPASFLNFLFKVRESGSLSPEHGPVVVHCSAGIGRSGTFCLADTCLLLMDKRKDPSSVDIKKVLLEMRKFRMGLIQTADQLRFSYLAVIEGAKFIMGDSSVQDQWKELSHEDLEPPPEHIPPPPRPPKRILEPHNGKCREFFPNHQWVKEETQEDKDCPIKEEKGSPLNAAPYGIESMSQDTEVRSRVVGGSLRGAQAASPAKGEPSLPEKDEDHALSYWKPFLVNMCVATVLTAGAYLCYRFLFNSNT
Assay: PTP1B inhibitory assay (pNPP substrate)
Conditions: log-dose inhibition curve; mean ± SEM of triplicate experiments
Measurement kind: IC50 (µM)

Input line: Give its IC50 value. Item: CC(C)=CCC/C(=C/CC/C(C)=C/CC/C(C)=C/CC1=CC(=O)C=C(C)C1=O)C(=O)O
Output line: 14.2

(a) CC(C)=CCC/C(=C/CC/C(C)=C/CC/C(C)=C/Cc1cc(O)cc(C)c1O)C(=O)O [Sargahydroquinoic acid, sargahydroquinoic acid]
(b) CC(C)=CCC/C(=C/CC/C(C)=C/CCC1(C)C=Cc2cc(O)cc(C)c2O1)C(=O)O (stereo not drawn)
Input line: Out of a and b , name the one with the higher IC50. Answer by quoting the chosen item's label.
Output line: b
